Target: T1, recombinant biotinylated human PAR2 extracellular domain (residues 1-75), N-terminal AviTag, C-terminal Flag … (human, UniProt P55085 26-75, biotin on the AviTag (enzymatic biotinylation))
T1 construct: also called Bio-human-PAR2 ECD; human PAR2 ECD; not shown: N-terminal AviTag (Avidity LLC); C-terminal Flag and poly Histidine tags
T1 sequence (P55085 26-75): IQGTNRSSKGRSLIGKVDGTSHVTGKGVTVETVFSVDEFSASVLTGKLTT
Test: HTRF competition with Par0067 IgG, pH 6.0, scFv
ASSAY_READOUT: IC50 (nM)
The answer is to be given in nM; state only the numeric part.

Please report the recorded IC50 for PaB670080 scFv (scFv, V domains shown, purified scFv) VH: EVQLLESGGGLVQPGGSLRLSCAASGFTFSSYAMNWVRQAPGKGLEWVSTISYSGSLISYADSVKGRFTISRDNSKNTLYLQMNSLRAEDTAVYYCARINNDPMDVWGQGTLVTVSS VL: SIELTQPPSVSVSPGQTASITCSGDNLGKKYVQWYQQKPGQSPVLVIYDDSNRPSGIPERFSGSNSGNTATLTISGTQAMDEADYYCQTWDGHHHTGETNHFGGGTKLTVL .
158

Please report the recorded IC50 for PaB670078 scFv (scFv, V domains shown, purified scFv; also called ZZ1OZJ-G03) VH: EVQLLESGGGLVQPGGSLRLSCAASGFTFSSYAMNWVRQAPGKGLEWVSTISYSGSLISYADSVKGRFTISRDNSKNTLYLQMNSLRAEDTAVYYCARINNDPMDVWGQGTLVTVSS VL: SIELTQPPSVSVSPGQTASITCSGDNLGKKYVQWYQQKPGQSPVLVIYDDSNRPSGIPERFSGSNSGNTATLTISGTQAMDEADYYCHHWHGHPHTGEHNVFGGGTKLTVL .
319

Please report the recorded IC50 for PaB670099 scFv (scFv, V domains shown, purified scFv) VH: EVQLLESGGGLVQPGGSLRLSCAASGFTFSSYAMNWVRQAPGKGLEWVSTISYHGSHISYHDSVHHRFTISRDNSKNTLYLQMNSLRAEDTAVYYCARINNDPMDVWGQGTLVTVSS VL: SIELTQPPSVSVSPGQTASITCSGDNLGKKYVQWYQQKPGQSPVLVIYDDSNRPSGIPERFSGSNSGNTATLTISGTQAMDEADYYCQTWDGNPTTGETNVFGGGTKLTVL .
62.4
